molecular target: Nuclear receptor coactivator 3 (Homo sapiens) (UniProt Q9Y6Q9); assay: SRC3 coactivator transcriptional activity inhibitors, confirmation, cell-based, luminescence, quadruplicate (AID 588792); conditions: HEK293 GAL4-SRC3 luciferase reporter, at 3.6 µM, hits give high values;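 note: 0% = DMSO treated cells and 100% = gossypol at 36 µM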
Sequence (Q9Y6Q9 whole entry, looked up, the tested form may be a part): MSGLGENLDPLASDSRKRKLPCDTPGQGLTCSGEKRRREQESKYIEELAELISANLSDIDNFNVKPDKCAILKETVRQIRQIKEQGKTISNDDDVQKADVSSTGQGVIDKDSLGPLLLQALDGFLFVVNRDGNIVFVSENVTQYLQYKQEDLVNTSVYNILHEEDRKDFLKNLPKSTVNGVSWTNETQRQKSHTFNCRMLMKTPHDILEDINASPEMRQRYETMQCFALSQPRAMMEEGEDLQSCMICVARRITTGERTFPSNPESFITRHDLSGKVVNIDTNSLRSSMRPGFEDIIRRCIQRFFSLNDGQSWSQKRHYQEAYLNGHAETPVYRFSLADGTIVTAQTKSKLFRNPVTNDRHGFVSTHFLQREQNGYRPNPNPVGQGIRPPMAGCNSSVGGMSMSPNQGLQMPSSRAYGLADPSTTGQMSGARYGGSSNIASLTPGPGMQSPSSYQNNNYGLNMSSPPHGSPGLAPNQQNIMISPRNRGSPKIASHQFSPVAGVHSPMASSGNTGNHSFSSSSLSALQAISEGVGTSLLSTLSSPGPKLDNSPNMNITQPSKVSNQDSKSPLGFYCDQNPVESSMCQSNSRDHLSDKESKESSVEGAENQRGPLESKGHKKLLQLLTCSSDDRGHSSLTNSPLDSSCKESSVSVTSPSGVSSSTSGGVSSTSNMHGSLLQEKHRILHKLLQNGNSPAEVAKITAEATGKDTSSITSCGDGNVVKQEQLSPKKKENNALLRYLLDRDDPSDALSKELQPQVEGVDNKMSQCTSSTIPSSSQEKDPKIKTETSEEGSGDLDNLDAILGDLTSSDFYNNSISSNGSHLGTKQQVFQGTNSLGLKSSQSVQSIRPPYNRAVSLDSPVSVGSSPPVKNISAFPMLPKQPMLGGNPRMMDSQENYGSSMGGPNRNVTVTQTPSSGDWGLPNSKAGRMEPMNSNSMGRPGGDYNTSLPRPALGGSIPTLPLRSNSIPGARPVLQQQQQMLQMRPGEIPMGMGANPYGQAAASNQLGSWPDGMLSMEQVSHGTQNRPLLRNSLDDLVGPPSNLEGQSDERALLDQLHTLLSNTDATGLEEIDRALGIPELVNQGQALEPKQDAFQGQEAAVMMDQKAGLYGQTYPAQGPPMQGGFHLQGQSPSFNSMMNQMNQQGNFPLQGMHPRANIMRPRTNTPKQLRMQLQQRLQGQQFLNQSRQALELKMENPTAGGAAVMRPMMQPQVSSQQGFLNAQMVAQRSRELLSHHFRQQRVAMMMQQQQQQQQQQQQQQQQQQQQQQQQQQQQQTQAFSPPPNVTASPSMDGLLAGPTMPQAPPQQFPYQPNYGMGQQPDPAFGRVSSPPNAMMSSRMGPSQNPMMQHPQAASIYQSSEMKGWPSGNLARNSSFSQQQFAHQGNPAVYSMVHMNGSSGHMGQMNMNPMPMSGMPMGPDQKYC
Activity calls are given as the source filed them.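 Rule for the calls: active = mean inhibition over 43.08%, the solvent-only control mean plus 3 SD; inactive = the rest.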
measurement name: inhibition

Solved entries (count: 2):
{"molecule": "CC(C)(C)N(Cc1ccc2c(c1)OCO2)C(=O)/C=C\\S(=O)c1ccccc1 (stereo not drawn)", "inhibition": "45% (active)"}
{"molecule": "C=Cc1ccc(CC2(C)C(=O)Nc3ccc(-c4cccnc4)cc32)cc1 (stereo not drawn)", "inhibition": "45.2% (active)"}

// next entry
Task: Could you tell me which inhibition is on file for COc1ccccc1NS(=O)(=O)c1cc(NC(=O)c2[nH]c(C)c(C(C)=O)c2C)ccc1N1CCOCC1 ?
Result: 15.5% (inactive)

====

molecular target: Nuclear receptor coactivator 1 (Homo sapiens); test: SRC1 coactivator transcriptional activity inhibitors, confirmation, cell-based, luminescence, quadruplicate (AID 588820); settings: HEK293 GAL4-SRC1 luciferase reporter, at 3.6 µM, hits give high values;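 note: 0% = DMSO wells and 100% = gossypol 36 µM treated wells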
measurement name: inhibition (%)
Just the number please, in %, no unit attached.

{"molecule": "COc1ccc(NC(=O)CCn2c(=S)[nH]c3ccccc3c2=O)cc1", "reading": 2.22}
{"molecule": "CCn1ccnc1CN(C)Cc1cn[nH]c1-c1ccc(OC)c(F)c1", "reading": 34.3}

We next turn to a different molecule, shown below.
Task: Bench note: what inhibition did CCCCN(C(=O)/C=C/c1ccccc1)C1CCS(=O)(=O)C1 (stereo not drawn) show?
Result: -6.12

====

target: Steroidogenic factor 1 (Homo sapiens); experiment: SF1 (NR5A1) inverse agonists, counter-screen for LRH-1 inverse agonist project, cell-based, luminescence, high throughput (AID 651614); conditions: cell-based SF1 luciferase reporter, at 3.6 µM, hits give high values;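 note: cells cotransfected with StAR promoter reporter and SF1 expression vector; 0% = vehicle on cells with receptor and 100% = vehicle on cells lacking receptor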
measurement name: inhibition (%)
Report the figure in % without appending any unit label.

{"compound": "O=C(OCC12CC3CC(CC(C3)C1)C2)c1ccc(NCc2cc(O)ccc2O)cc1", "study target": "Steroidogenic factor 1 (Homo sapiens)", "inhibition, %": 67.2}
{"compound": "CC1SC(C)C(=O)N(CC(=O)Nc2ccc3c(c2)OCO3)C1=O (stereo unspecified)", "study target": "Steroidogenic factor 1 (Homo sapiens)", "inhibition, %": 36.9}
{"compound": "CCc1ccccc1NC(=O)CSc1nnc([C@@H](NC(=O)OC(C)(C)C)C(C)C)o1", "study target": "Steroidogenic factor 1 (Homo sapiens)", "inhibition, %": 45.9}
{"compound": "CC(=O)Nc1cccc(C(=O)OCC(=O)N2CCN(C(=O)COC(=O)c3cccc(NC(C)=O)c3)CC2)c1", "study target": "Steroidogenic factor 1 (Homo sapiens)", "inhibition, %": 47.6}
{"compound": "CN(C)S(=O)(=O)c1cccc(C(=O)OCC(=O)Nc2ccc3c(c2)OCCO3)c1", "study target": "Steroidogenic factor 1 (Homo sapiens)", "inhibition, %": 52.3}

Task: Request body: readout inhibition, system Steroidogenic factor 1 (Homo sapiens), query O=C(CNc1cccc2ccccc12)N/N=C/c1ccc([N+](=O)[O-])o1 . Return the value.
Result: 56

Task: What value of inhibition on Steroidogenic factor 1 (Homo sapiens) does COc1ccc(-n2c(/C=C(\C)O)nc(=O)c3c(C)cc(C)nc32)cc1 have?
Result: 37.2

Task: Given the entry CCCc1ccc(C(=O)O/N=C(\N)c2ccccn2)cc1 , what inhibition was observed with Steroidogenic factor 1 (Homo sapiens)?
Result: 2.79

Task: Please tell me: inhibition of CC1(c2ccc3ccccc3c2)NC(=O)N(CC(=O)N2CCN(Cc3ccc(C#N)cc3)CC2)C1=O (stereo unspecified) , system Steroidogenic factor 1 (Homo sapiens)?
Result: 62.4

Task: Please provide the recorded inhibition for O=[N+]([O-])c1cnccc1Nc1cccc(F)c1 , tested on Steroidogenic factor 1 (Homo sapiens).
Result: 55.1

Task: Short answer please: inhibition, Steroidogenic factor 1 (Homo sapiens), entry Cc1sc(NC(=O)c2ccco2)c(C(c2cccnc2)N2CCN(c3ccc(F)cc3)CC2)c1C (stereo unspecified)
Result: 60.2

Task: Lab note: need inhibition for CC12CCC(=O)N1c1c(sc3nc(N4CCOCC4)c4c(c13)CCCC4)C(=O)N2 (stereo unspecified) on Steroidogenic factor 1 (Homo sapiens), anyone have it?
Result: 53.7

Task: Request: inhibition, test system Steroidogenic factor 1 (Homo sapiens), entry CC(C)(C)c1ccc(C(=O)Nc2ccc(C(=O)NCc3cccnc3)cc2)cc1
Result: 93.2
